experiment: AUC (0 to t) in fasted Sprague-Dawley rat at 100 mg/kg, po measured upto 12 hrs by LC-MS/MS analysis; assay type: ADME, organism-based; design: time < 12 hrs, dose 100 mg/kg, route po; conditions: Sprague-Dawley, in vivo
Observable: AUC(0-t) at 12 h (ng·h/mL)
Write it as a number; the unit ng·h/mL goes unstated.

In: Identify measured AUC(0-t) at 12 h associated with `Cc1cc(C)n(-c2nc(Nc3cccc(Br)c3)c3ccn(C)c3n2)n1`
Out: 2500

----------
Quick reference: half-life of the listed items.
assay: Half life in fasted Sprague-Dawley rat at 100 mg/kg, po measured upto 12 hrs by LC-MS/MS analysis; type: ADME, organism-based; conditions: in vivo
Report field: quantity (unit follows the number).

# Molecular string, half-life
rows = [
    ("Cc1cc(C)n(-c2nc(Nc3cccc(Br)c3)c3ccn(C)c3n2)n1", "1.25 h"),
]

The record that follows has no half-life shown yet.
In: Identify measured half-life associated with `Cc1ccn(-c2nc(Nc3ccc(F)cc3)c3ccn(C)c3n2)n1`
Out: 1.43 h

----------
molecular target: Small conductance calcium-activated potassium channel protein 2 (Homo sapiens, UniProt Q9H2S1); assay: Positive modulation of SK2 (unknown origin)
Sequence (Q9H2S1 whole entry): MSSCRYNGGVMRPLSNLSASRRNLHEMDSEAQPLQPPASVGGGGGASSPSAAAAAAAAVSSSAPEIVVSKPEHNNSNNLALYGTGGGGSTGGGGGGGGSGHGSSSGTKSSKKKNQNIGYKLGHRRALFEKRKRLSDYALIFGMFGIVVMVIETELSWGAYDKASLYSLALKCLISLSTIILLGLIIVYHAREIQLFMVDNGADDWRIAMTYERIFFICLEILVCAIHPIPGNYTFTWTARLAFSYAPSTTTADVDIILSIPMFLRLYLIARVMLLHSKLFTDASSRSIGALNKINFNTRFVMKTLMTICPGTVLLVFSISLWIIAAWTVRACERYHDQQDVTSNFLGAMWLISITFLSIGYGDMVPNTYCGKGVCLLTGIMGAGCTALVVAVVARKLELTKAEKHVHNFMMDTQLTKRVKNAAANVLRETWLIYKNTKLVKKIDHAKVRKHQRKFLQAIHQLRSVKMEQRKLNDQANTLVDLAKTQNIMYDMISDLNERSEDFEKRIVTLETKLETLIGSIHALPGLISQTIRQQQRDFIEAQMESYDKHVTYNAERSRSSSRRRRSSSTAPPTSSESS
Observable: pEC50
To interpret pEC50, take it as minus log10 of a concentration measured in moles per litre.

In: Identify measured pEC50 associated with `Cc1cc(NC2CCCCC2)nc(-n2nc(C)cc2C)n1`
Out: 4.85

----------
assay: Apparent oral clearance in fasted Sprague-Dawley rat at 100 mg/kg, po measured upto 12 hrs by LC-MS/MS analysis; assay type: ADME, organism-based; conditions: Sprague-Dawley, in vivo, read-out: CLz/F (converted)
Observable: CL/F (mL/min/kg)
Write it as a number; the unit mL/min/kg goes unstated.

In: Identify measured CL/F associated with `Cc1cc(C)n(-c2nc(Nc3cccc(Br)c3)c3ccn(C)c3n2)n1`
Out: 813

----------
Quick reference: Cmax of the listed items.
test: Cmax in fasted Sprague-Dawley rat at 2 mg/kg, iv measured upto 12 hrs by LC-MS/MS analysis; assay type: ADME, organism-based; set-up: dose 2 mg/kg, time < 12 hrs, route iv; settings: in vivo
Write it as a number; the unit µg/mL goes unstated.

# Molecular string, Units, Cmax
rows = [
    ("Cc1cc(C)n(-c2nc(Nc3cccc(Br)c3)c3ccn(C)c3n2)n1", "µg/mL", 1.62),
]

In: Identify measured Cmax associated with `Cc1ccn(-c2nc(Nc3ccc(F)cc3)c3ccn(C)c3n2)n1`
Out: 1.68

----------
Quick reference: Papp A→B at 24 h, 10 ug/ml of the listed items.
assay: Apparent permeability across apical to basal side in human BMEC cells at 10 ug/ml incubated for 24 hrs by BBB assay; format: ADME, cell-based; settings: dose 10 µg/ml
Write it as a number; the unit ×10⁻⁶ cm/s goes unstated.

Known results for compounds:
# Molecular string, Papp A→B at 24 h, 10 ug/ml (×10⁻⁶ cm/s)
rows = [
    ("Cc1cc(C)n(-c2nc(Nc3cccc(Br)c3)c3ccn(C)c3n2)n1", 3.23),
    ("Cc1ccn(-c2nc(Nc3ccc(F)cc3)c3ccn(C)c3n2)n1", 3.07),
]

The record that follows has no Papp A→B at 24 h, 10 ug/ml shown yet.
In: Identify measured Papp A→B at 24 h, 10 ug/ml associated with `Cc1cc(C)n(-c2nc(Nc3ccc(Cl)cc3)c3ncn(C)c3n2)n1`
Out: 2.94

These entries and their values trace back to ChEMBL document CHEMBL5325425.
